Each entry below carries its reported Ki.
Target: DNA-PK (Homo sapiens, UniProt P78527)
Test: DNA-PK Inhibition Assay (standard radiometric kinase assay, 33P-ATP, peptide substrate)
Type: biochemical
Conditions: radiometric assay, approximately 6 nM DNA-PK, 100 μM ATP, 45 min; fit to competitive tight-binding inhibition; read-out: Ki for the inhibition of DNA-PK
Description: Compounds were screened for their ability to inhibit DNA-PK kinase using a standard radiometric assay. Briefly, in this kinase assay the transfer of the terminal ^33P-phosphate in ^33P-ATP to a peptide substrate is interrogated. […] Following the addition of 50 μL of Ultima Gold™ high efficiency scintillant (obtained from Perkin Elmer), the samples were counted in a Packard TopCount NXT Microplate Scintillation and Luminescence Counter (Packard BioScience). […]

Use the examples below as a reference point.
[
  {
    "compound": "Fc1c(NC2CCOC2)ncnc1N[C@H]1CC[C@@H](Oc2cc(N3CCOCC3)cc3nccnc23)CC1 (stereo partly drawn) [Compound 379]",
    "reportedEndpoint": "Ki",
    "assayValue": "< 100 nM"
  },
  {
    "compound": "FC(F)(F)c1cncc(N[C@H]2CC[C@@H](Oc3cc(N4CCOCC4)cc4nccnc34)CC2)c1 [Compound 429]",
    "reportedEndpoint": "Ki",
    "assayValue": "< 100 nM"
  },
  {
    "compound": "Cn1nnnc1-c1cnc(N[C@H]2CC[C@@H](Oc3cc(N4CCOCC4)cc4nccnc34)CC2)nc1 [Compound 459]",
    "reportedEndpoint": "Ki",
    "assayValue": "< 100 nM"
  }
]

Asked: Which Ki value belongs to CNC(=O)c1ccnc(N[C@H]2CC[C@@H](Oc3cc(C4=CCOCC4)cc4nccnc34)CC2)n1 [Compound 319] ?
Given back: < 100 nM

Asked: Follow-up item: c1cnc2c(O[C@H]3CC[C@@H](Nc4ncc(CCN5CCCCC5)cn4)CC3)cc(N3CCOCC3)cc2n1 [Compound 433]
Given back: < 100 nM

Asked: Follow-up item: NC1(c2ccc(N[C@H]3CC[C@@H](Oc4cc(N5CCOCC5)cc5nccnc45)CC3)cn2)CC1 [Compound 466]
Given back: < 100 nM

Asked: Follow-up item: FC(F)(F)c1ccnc(N[C@H]2CC[C@@H](Oc3cc(N4CCOCC4)cc4nccnc34)CC2)c1 [Compound 589]
Given back: < 100 nM

* * *

molecular target: DNA-PK (Homo sapiens, UniProt P78527); assay: DNA-PK Inhibition Assay (standard radiometric kinase assay, 33P-ATP, peptide substrate); type: biochemical; conditions: radiometric assay, approximately 6 nM DNA-PK, 100 μM ATP, 45 min; fit to competitive tight-binding inhibition; read-out: Ki for the inhibition of DNA-PK
pKi: −log10 of the molar value.
Each entry below carries its reported pKi.

[
  {
    "molecule": "CN1CC[C@H](Nc2ncnc(N[C@H]3CC[C@@H](Oc4cc(N5CCOCC5)cc5nccnc45)CC3)c2F)C1",
    "assayValue": "> 7.00"
  },
  {
    "molecule": "[2H]C([2H])([2H])c1nccc(N[C@H]2CC[C@@H](Oc3cc(N4CCOCC4)cc4nccnc34)CC2)n1",
    "assayValue": "> 7.00"
  },
  {
    "molecule": "O=C(N[C@H]1CC[C@@H](Oc2cc(N3CCOCC3)cc3nccnc23)CC1)N1CCOCC1",
    "assayValue": "> 7.00"
  }
]

Let us examine a further case.
Asked: Which pKi value belongs to CN1CCC(NC(=O)N[C@H]2CC[C@@H](Oc3cc(N4CCOCC4)cc4nccnc34)CC2)CC1 ?
Given back: > 7.00

* * *

molecular target: DNA-PK (Homo sapiens, UniProt P78527); test: DNA-PK Inhibition Assay (standard radiometric kinase assay, 33P-ATP, peptide substrate); type: biochemical; details: radiometric assay, approximately 6 nM DNA-PK, 100 μM ATP, 45 min; fit to competitive tight-binding inhibition; read-out: Ki for the inhibition of DNA-PK
pKi: −log10 of the molar value.
reportedEndpoint: pKi

Use the examples below as a reference point.
[
  {
    "molecule": "CCOc1cc(N[C@H]2CC[C@@H](Oc3cc(N4CCOCC4)cc4nccnc34)CC2)ccn1",
    "systemUnderTest": "DNA-PK (Homo sapiens, UniProt P78527)",
    "reportedEndpoint": "pKi",
    "assayValue": "> 7.00"
  },
  {
    "molecule": "c1cc(OCCN2CCOCC2)nc(N[C@H]2CC[C@@H](Oc3cc(N4CCOCC4)cc4nccnc34)CC2)n1",
    "systemUnderTest": "DNA-PK (Homo sapiens, UniProt P78527)",
    "reportedEndpoint": "pKi",
    "assayValue": "> 7.00"
  },
  {
    "molecule": "CN(C)C(=O)c1ccnc(N[C@H]2CC[C@@H](Oc3cc(N4CCOCC4)cc4nccnc34)CC2)n1",
    "systemUnderTest": "DNA-PK (Homo sapiens, UniProt P78527)",
    "reportedEndpoint": "pKi",
    "assayValue": "> 7.00"
  }
]

Let us examine a further case.
Asked: Which pKi value belongs to Clc1cnc(N[C@H]2CC[C@@H](Oc3cc(N4CCOCC4)cc4nccnc34)CC2)nc1 ?
Given back: > 7.00

* * *

Each entry below carries its reported Ki.
molecular target: DNA-PK (Homo sapiens, UniProt P78527); assay: DNA-PK Inhibition Assay (standard radiometric kinase assay, 33P-ATP, peptide substrate); format: biochemical; conditions: radiometric assay, approximately 6 nM DNA-PK, 100 μM ATP, 45 min; fit to competitive tight-binding inhibition; read-out: Ki for the inhibition of DNA-PK

Use the examples below as a reference point.
[
  {
    "molecule": "CCc1ncnc(N[C@H]2CC[C@@H](Oc3cc(N4CC5CC(C4)O5)cc4nccnc34)CC2)c1F",
    "systemUnderTest": "DNA-PK (Homo sapiens, UniProt P78527)",
    "Ki": "< 100 nM"
  },
  {
    "molecule": "CNC(=O)c1cc(N[C@H]2CC[C@@H](Oc3cc(N4CCOCC4)cc4nccnc34)CC2)ncn1",
    "systemUnderTest": "DNA-PK (Homo sapiens, UniProt P78527)",
    "Ki": "< 100 nM"
  },
  {
    "molecule": "CNC(=O)c1cccc(N[C@H]2CC[C@@H](Oc3cc(N4CCOCC4)cc4nccnc34)CC2)n1",
    "systemUnderTest": "DNA-PK (Homo sapiens, UniProt P78527)",
    "Ki": "< 100 nM"
  },
  {
    "molecule": "Cc1ncc(F)c(N[C@H]2CC[C@@H](Oc3cc(N4CCOCC4)cc4nccnc34)CC2)n1",
    "systemUnderTest": "DNA-PK (Homo sapiens, UniProt P78527)",
    "Ki": "< 100 nM"
  },
  {
    "molecule": "Cc1cc(N[C@H]2CC[C@@H](Oc3cc(N4CCOCC4)cc4nccnc34)CC2)cc(C)n1",
    "systemUnderTest": "DNA-PK (Homo sapiens, UniProt P78527)",
    "Ki": "< 100 nM"
  },
  {
    "molecule": "c1cc2ncnn2c(N[C@H]2CC[C@@H](Oc3cc(N4CCOCC4)cc4nccnc34)CC2)n1",
    "systemUnderTest": "DNA-PK (Homo sapiens, UniProt P78527)",
    "Ki": "< 100 nM"
  }
]

Let us examine a further case.
Asked: Which Ki value belongs to FC(F)(F)c1cc(N[C@H]2CC[C@@H](Oc3cc(N4CCOCC4)cc4nccnc34)CC2)ncn1 ?
Given back: < 100 nM

* * *

Each entry below carries its reported pKi.
molecular target: DNA-PK (Homo sapiens, UniProt P78527); test: DNA-PK Inhibition Assay (standard radiometric kinase assay, 33P-ATP, peptide substrate); type: biochemical; conditions: radiometric assay, approximately 6 nM DNA-PK, 100 μM ATP, 45 min; fit to competitive tight-binding inhibition; read-out: Ki for the inhibition of DNA-PK
pKi: −log10 of the molar value.

[
  {
    "compound": "Cc1nnc2c(N[C@H]3CC[C@@H](Oc4cc(N5CCOCC5)cc5nccnc45)CC3)nccn12 [Compound 310]",
    "assayValue": "> 7.00"
  }
]

Asked: Which pKi value belongs to O=C1Cc2cnc(N[C@H]3CC[C@@H](Oc4cc(N5CCOCC5)cc5nccnc45)CC3)nc2N1 [Compound 552] ?
Given back: > 7.00

Asked: Follow-up item: c1cc2c(c(N[C@H]3CC[C@@H](Oc4cc(N5CCOCC5)cc5nccnc45)CC3)c1)OCC2 [Compound 338]
Given back: > 7.00

Asked: Follow-up item: CC(C)(C)OC(=O)N1CCn2cnc(N[C@H]3CC[C@@H](Oc4cc(N5CCOCC5)cc5nccnc45)CC3)c2C1 [Compound 296]
Given back: > 7.00

Asked: Follow-up item: Cc1ncncc1N[C@H]1CC[C@@H](Oc2cc(N3CCOCC3)cc3nccnc23)CC1 [Compound 448]
Given back: > 7.00

Asked: Follow-up item: OC1(c2ccc(N[C@H]3CC[C@@H](Oc4cc(N5CCOCC5)cc5nccnc45)CC3)cn2)COC1 [Compound 468]
Given back: > 7.00

Asked: Follow-up item: FC(F)(F)c1cccnc1N[C@H]1CC[C@@H](Oc2cc(N3CCOCC3)cc3nccnc23)CC1 [Compound 593]
Given back: > 7.00

Asked: Follow-up item: Cc1nccc(N[C@H]2CC[C@@H](Oc3cc(C4=CCOC4)cc4nccnc34)CC2)n1 [Compound 289]
Given back: > 7.00

Asked: Follow-up item: Clc1nc(N[C@H]2CC[C@@H](Oc3cc(N4CCOCC4)cc4nccnc34)CC2)nc2[nH]ccc12 [Compound 501]
Given back: > 7.00

Asked: Follow-up item: Cc1cnc2c(O[C@H]3CC[C@@H](Nc4ncc(C5CCN(C)CC5)cn4)CC3)cc(N3CCOCC3)cc2n1 [Compound 543]
Given back: > 7.00

Asked: Follow-up item: Cc1cc(N[C@H]2CC[C@@H](Oc3cc(N4CCOCC4)cc4nccnc34)CC2)nn1C [Compound 326]
Given back: > 7.00

Asked: Follow-up item: O=C(N[C@H]1CC[C@@H](Oc2cc(N3CCOCC3)cc3nccnc23)CC1)N1CCCCC1 [Compound 416]
Given back: > 7.00
